- Test system: L929 mouse fibroblasts cells
- method: Cytotoxicity, propidium iodide fluorescence method
- Type: cell-based
- runConditions: 50 μM, 24-h incubation
observedProperty: 50 μM Average (% pi) ± σ

Sample records with 50 μM Average (% pi) ± σ:
smilesCode	targetOfAssay	observedProperty	observedValue
CC(/C=C/C(=O)c1ccc(OCCCOc2ccc(C(=O)/C=C/C(C)=C/c3ccccc3)cc2)cc1)=C\c1ccccc1	L929 mouse fibroblasts cells	50 μM Average (% pi) ± σ	38.7 ± 4.96%
Cc1ccc(/C=C/C(=O)c2ccc(OCCCOc3ccc(C(=O)/C=C/c4ccc(C)o4)cc3)cc2)o1	L929 mouse fibroblasts cells	50 μM Average (% pi) ± σ	84.03 ± 2.25%
O=C(/C=C/c1cccs1)c1ccc(OCCCOc2ccc(C(=O)/C=C/c3cccs3)cc2)cc1	L929 mouse fibroblasts cells	50 μM Average (% pi) ± σ	7.26 ± 0.3%

Then this molecule:
Look up and state reported 50 μM Average (% pi) ± σ for O=C(/C=C/C=C/c1ccccc1)c1ccc(OCCCOc2ccc(C(=O)/C=C/C=C/c3ccccc3)cc2)cc1
28.84 ± 5.62%

###

- System: L929 mouse fibroblasts cells
- method: Cytotoxicity, propidium iodide fluorescence method
- Assay type: cell-based
- runConditions: 100 μM, 24-h incubation
Categorize each record by its 100 μM Average (% pi) ± σ using lo = under 10%, mid = from 10% up to 40%, hi = 40% and over

Illustrative cases are given below, each with its answer.
compound	targetOfAssay	discreteLabel
O=C(/C=C/C=C/c1ccc([N+](=O)[O-])cc1)c1ccc(O)cc1	L929 mouse fibroblasts cells	hi
CC(/C=C/C(=O)c1ccc(O)cc1)=C\c1ccccc1	L929 mouse fibroblasts cells	lo
O=C(/C=C/c1c[nH]c2ccccc12)c1ccc(OCCCOc2ccc(C(=O)/C=C/c3c[nH]c4ccccc34)cc2)cc1	L929 mouse fibroblasts cells	lo
O=C(/C=C/c1cccs1)c1ccc(OCCCOc2ccc(C(=O)/C=C/c3cccs3)cc2)cc1	L929 mouse fibroblasts cells	lo
O=C(/C=C/c1ccco1)c1ccc(OCCCOc2ccc(C(=O)/C=C/c3ccco3)cc2)cc1	L929 mouse fibroblasts cells	mid

Next, consider the following compound.
Form: Item = CC(=O)c1ccc(OCCCCCOc2ccc(C(C)=O)cc2)cc1 ; Class = ?
mid

###

- targetOfAssay: soybean lipoxygenase (Glycine max, UniProt P08170)
- Sequence (P08170 whole entry): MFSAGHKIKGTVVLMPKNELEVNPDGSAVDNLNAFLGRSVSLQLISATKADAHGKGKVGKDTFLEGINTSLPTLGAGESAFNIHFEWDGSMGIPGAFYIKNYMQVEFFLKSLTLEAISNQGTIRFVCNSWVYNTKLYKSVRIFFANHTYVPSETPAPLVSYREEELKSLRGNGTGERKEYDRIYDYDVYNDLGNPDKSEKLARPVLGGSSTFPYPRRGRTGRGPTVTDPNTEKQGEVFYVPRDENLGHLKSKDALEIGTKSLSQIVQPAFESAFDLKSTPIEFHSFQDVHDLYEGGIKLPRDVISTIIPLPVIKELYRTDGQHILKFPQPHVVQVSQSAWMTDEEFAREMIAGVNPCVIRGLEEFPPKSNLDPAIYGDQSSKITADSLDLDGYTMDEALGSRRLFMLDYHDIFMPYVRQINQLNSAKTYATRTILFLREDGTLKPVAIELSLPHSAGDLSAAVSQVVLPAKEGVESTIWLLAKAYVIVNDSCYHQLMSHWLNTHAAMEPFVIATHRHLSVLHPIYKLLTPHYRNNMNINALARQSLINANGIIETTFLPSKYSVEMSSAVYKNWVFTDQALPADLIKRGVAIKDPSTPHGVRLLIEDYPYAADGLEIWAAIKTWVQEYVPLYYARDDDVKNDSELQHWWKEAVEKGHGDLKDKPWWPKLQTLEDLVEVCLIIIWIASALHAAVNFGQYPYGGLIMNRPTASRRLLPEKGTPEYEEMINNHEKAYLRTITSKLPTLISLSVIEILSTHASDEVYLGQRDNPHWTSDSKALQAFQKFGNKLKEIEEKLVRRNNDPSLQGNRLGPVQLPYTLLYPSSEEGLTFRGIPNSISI
- method: biochemical
- Format: biochemical
- runConditions: soybean LOX, 100 μM
observedProperty: % LOX Inhb. @ 100 μM (%)
One number for each entry, in %.

Sample records with % LOX Inhb. @ 100 μM:
compound	observedProperty	observedValue
O=C(/C=C/C(Br)=C\c1ccccc1)c1ccccc1O	% LOX Inhb. @ 100 μM	16
CC(=O)c1ccc(OCCOc2ccc(C(C)=O)cc2)cc1	% LOX Inhb. @ 100 μM	12
CN(C)c1ccc(/C=C/C=C/C(=O)c2ccccc2O)cc1	% LOX Inhb. @ 100 μM	100
O=C(/C=C/C(Br)=C\c1ccccc1)c1ccc(O)cc1	% LOX Inhb. @ 100 μM	16
CN(C)c1ccc(/C=C/C=C/C(=O)c2ccc(OCCOc3ccc(C(=O)/C=C/C=C/c4ccc(N(C)C)cc4)cc3)cc2)cc1	% LOX Inhb. @ 100 μM	77
O=C(/C=C/C=C/c1ccc([N+](=O)[O-])cc1)c1ccc(OCCCOc2ccc(C(=O)/C=C/C=C/c3ccc([N+](=O)[O-])cc3)cc2)cc1	% LOX Inhb. @ 100 μM	95
CC(=O)c1ccc(OCCCCCOc2ccc(C(C)=O)cc2)cc1	% LOX Inhb. @ 100 μM	17
O=C(/C=C/C1=C2C=CC=CC2NC1)c1ccc(O)cc1 (centres unmarked)	% LOX Inhb. @ 100 μM	60

Working through the 2 compounds below one at a time, give % LOX Inhb. @ 100 μM for each.
1. O=C(/C=C/C=C/c1ccc([N+](=O)[O-])cc1)c1ccccc1O
2. Cc1ccc(/C=C/C(=O)c2ccc(OCCCOc3ccc(C(=O)/C=C/c4ccc(C)o4)cc3)cc2)o1

1. 31
2. 52

Working through the 8 compounds below one at a time, give % LOX Inhb. @ 100 μM for each.
1. O=C(/C=C/c1ccccc1)c1ccc(OCCCOc2ccc(C(=O)/C=C/c3ccccc3)cc2)cc1
2. O=C(/C=C/c1ccco1)c1ccc(OCCCOc2ccc(C(=O)/C=C/c3ccco3)cc2)cc1
3. O=C(/C=C/C(Br)=C\c1ccccc1)c1ccc(OCCCOc2ccc(C(=O)/C=C/C(Br)=C\c3ccccc3)cc2)cc1
4. O=C(/C=C/c1ccccc1)c1ccc(O)cc1
5. O=C(/C=C/c1ccccc1)c1ccccc1O
6. CC(=O)c1ccc(OCCCCCCCCOc2ccc(C(C)=O)cc2)cc1
7. CN(C)c1ccc(/C=C/C=C/C(=O)c2ccc(OCCCCCCCCOc3ccc(C(=O)/C=C/C=C/c4ccc(N(C)C)cc4)cc3)cc2)cc1
8. CN(C)c1ccc(/C=C/C=C/C(=O)c2ccc(OCCCCCCCOc3ccc(C(=O)/C=C/C=C/c4ccc(N(C)C)cc4)cc3)cc2)cc1

1. 76
2. 57
3. 24.5
4. 23
5. 14
6. 5
7. 12
8. 65

Working through the 2 compounds below one at a time, give % LOX Inhb. @ 100 μM for each.
1. O=C(/C=C/c1cccs1)c1ccc(O)cc1
2. O=C(/C=C/c1cccs1)c1ccc(OCCCOc2ccc(C(=O)/C=C/c3cccs3)cc2)cc1

1. 9
2. 32
